FYI, the data here is from patent US11926640B2.

Below, each of the molecules is paired with its reported PLASMA STABILITY Mouse value.
- experimental protocol: in vitro metabolic stability in mouse plasma
- condition: prodrug remaining within the 60 min incubation time, mouse plasma

# molecule, PLASMA STABILITY Mouse
records = [
    ("CC(C)OC(=O)[C@H](CCC(=O)C=[N+]=[N-])NC(=O)OCOC(=O)C(C)(C)C", "0%"),
    ("CCOC(=O)[C@H](CCC(=O)C=[N+]=[N-])NC(=O)OCc1oc(=O)oc1C", "0%"),
    ("CCOC(=O)[C@H](CCC(=O)C=[N+]=[N-])NC(=O)OC(C)OC(=O)C(C)(C)C (mixture of isomers)", "0%"),
    ("CCOC(=O)[C@H](CCC(=O)C=[N+]=[N-])NC(=O)[C@@H](N)Cc1c[nH]c2ccccc12", "0%"),
    ("CC(C)C[C@H](N)C(=O)N[C@@H](CCC(=O)C=[N+]=[N-])C(=O)OC(C)C", "0%"),
    ("CC(C)OC(=O)[C@H](CCC(=O)C=[N+]=[N-])NC(=O)OC(C)OC(=O)C(C)(C)C (single isomer, unassigned) [Compound 14b]", "0%"),
    ("Cc1oc(=O)oc1COC(=O)N[C@@H](CCC(=O)C=[N+]=[N-])C(=O)OC(C)C", "0%"),
]

# PLASMA STABILITY Mouse lookup, item CC(C)OC(=O)[C@H](CCC(=O)C=[N+]=[N-])NC(=O)[C@@H](N)Cc1c[nH]c2ccccc12 (stereo in doubt) 0%
